Task for the reader: assign each of the following molecules its reported pIC50.
- targetDesc: L858R/T790M/C797S triple mutant EGFR (Homo sapiens, UniProt P00533, C797S/L858R/T790M)
- Construct: purchased Signalchem
- Sequence (P00533 25-1210 T790M/C797S/L858R): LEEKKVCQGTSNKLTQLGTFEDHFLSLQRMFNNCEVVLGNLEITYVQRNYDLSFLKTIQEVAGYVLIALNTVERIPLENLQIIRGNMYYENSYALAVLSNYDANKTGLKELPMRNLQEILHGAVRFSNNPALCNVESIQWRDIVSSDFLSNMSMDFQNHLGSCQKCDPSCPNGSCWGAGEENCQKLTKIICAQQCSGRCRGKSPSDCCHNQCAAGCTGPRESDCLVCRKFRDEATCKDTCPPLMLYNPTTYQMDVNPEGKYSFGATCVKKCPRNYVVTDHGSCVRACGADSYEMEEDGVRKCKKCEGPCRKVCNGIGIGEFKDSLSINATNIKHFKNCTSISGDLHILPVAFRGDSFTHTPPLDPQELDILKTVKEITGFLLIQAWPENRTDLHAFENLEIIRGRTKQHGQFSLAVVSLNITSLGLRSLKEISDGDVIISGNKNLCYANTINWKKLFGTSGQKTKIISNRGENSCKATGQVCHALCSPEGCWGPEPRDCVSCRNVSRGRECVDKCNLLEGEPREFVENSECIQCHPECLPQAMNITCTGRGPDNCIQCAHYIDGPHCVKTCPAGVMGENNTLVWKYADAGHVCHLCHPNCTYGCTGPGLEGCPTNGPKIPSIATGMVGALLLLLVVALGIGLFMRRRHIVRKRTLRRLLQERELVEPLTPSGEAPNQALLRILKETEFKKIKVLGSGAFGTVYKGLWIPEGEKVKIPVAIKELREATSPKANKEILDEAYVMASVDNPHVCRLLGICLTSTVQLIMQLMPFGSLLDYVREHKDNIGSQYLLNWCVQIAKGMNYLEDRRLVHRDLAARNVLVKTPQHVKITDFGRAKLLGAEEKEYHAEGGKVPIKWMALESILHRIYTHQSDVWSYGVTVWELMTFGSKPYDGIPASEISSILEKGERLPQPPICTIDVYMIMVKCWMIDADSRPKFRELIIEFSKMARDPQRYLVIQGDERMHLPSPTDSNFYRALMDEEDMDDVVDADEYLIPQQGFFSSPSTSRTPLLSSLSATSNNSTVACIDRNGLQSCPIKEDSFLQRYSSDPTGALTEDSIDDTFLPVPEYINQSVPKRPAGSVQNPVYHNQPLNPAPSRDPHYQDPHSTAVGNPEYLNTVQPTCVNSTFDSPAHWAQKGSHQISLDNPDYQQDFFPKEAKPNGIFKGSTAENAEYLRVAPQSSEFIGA
- procedureDetails: Enzymology experiment in vitro (HTRF/FRET kinase activity), L858R/T790M/C797S triple mutant EGFR
- Assay type: biochemical
- appliedConditions: HTRF KinEASE-TK, read-out: EGFR (L858R/T790M/C797S) IC50
Numbers only, as −log10 of the molar value.

Illustrative cases are given below, each with its answer.
{"columns": ["molecule", "pIC50"],
 "data": [
  ["COc1cc(N2CCOCC2)c(-c2cnn(C)c2)cc1Nc1ncc(C)c(Nc2ccc3nccnc3c2P(C)(C)=O)n1", 9.55],
  ["COc1cc(N2CCC(N3CC4(CN(C)C4)C3)CC2)c(-c2cnn(C)c2)cc1Nc1ncc(Br)c(Nc2ccc3nccnc3c2P(C)(C)=O)n1", 9.85],
  ["COc1cc(N2CC3CC2CN3C)c(-c2cnn(C)c2)cc1Nc1ncc(Br)c(Nc2ccc3nccnc3c2P(C)(C)=O)n1 (stereo not shown)", 10.15],
  ["COc1cc(C2CCOCC2)c(-c2cnn(C)c2)cc1Nc1ncc(Br)c(Nc2ccc3nccnc3c2P(C)(C)=O)n1", 9.77],
  ["COc1cc(N2CCC3(CCN(C)CC3)CC2)c(-c2cnn(C)c2)cc1Nc1ncc(Br)c(Nc2cc3c(cc2N(C)S(C)(=O)=O)CC3)n1", 9.23],
  ["COc1cc(N2CCC(N3CC(F)C3)CC2)c(-c2cnn(C)c2)cc1Nc1ncc(Br)c(Nc2ccc3nccnc3c2P(C)(C)=O)n1", 9.15],
  ["COc1cc(N2CCN(C(C)=O)CC2)c(-c2cnn(C)c2)cc1Nc1ncc(Br)c(Nc2ccc3nccnc3c2P(C)(C)=O)n1", 9.82],
  ["COc1cc(N2CCC(OC(C)C)CC2)c(-c2cnn(C)c2)cc1Nc1ncc(Br)c(Nc2ccc3nccnc3c2P(C)(C)=O)n1", 8.66]
]}

Hey, quick one: what's pIC50 for each of these?
1. CCn1cc(-c2cc(Nc3ncc(Br)c(Nc4ccc5nccnc5c4P(C)(C)=O)n3)c(OC)cc2N2CCOCC2)cn1
2. COc1cc(N2C[C@@H]3C[C@H]2CO3)c(-c2cnn(C)c2)cc1Nc1ncc(Br)c(Nc2ccc3nccnc3c2P(C)(C)=O)n1
3. COc1cc(N2CCC(C)(OC)CC2)c(-c2c[nH]n(C)c2=O)cc1Nc1ncc(Br)c(Nc2ccc3nccnc3c2P(C)(C)=O)n1
4. COc1cc(N2CCC3CCN(C)C3C2)c(-c2cnn(C)c2)cc1Nc1ncc(Br)c(Nc2ccc3nccnc3c2P(C)(C)=O)n1 (stereo not shown)
5. COc1cc(N2CCOCC2)c(-c2ccn(C)n2)cc1Nc1ncc(Br)c(Nc2ccc3nccnc3c2P(C)(C)=O)n1

1. 9.92
2. 8.89
3. 9.89
4. 9.46
5. 8.26

* * *

- targetDesc: L858R/T790M/C797S triple mutant EGFR (Homo sapiens, UniProt P00533, C797S/L858R/T790M)
- Construct: purchased Signalchem
- procedureDetails: Enzymology experiment in vitro (HTRF/FRET kinase activity), L858R/T790M/C797S triple mutant EGFR
- Assay type: biochemical
- appliedConditions: HTRF KinEASE-TK, read-out: EGFR (L858R/T790M/C797S) IC50
assayReadout: IC50 (pM)
Answers are plain numbers, in pM.

# count of solved cases: 4
{"columns": ["compound", "unitsText", "measured"],
 "data": [
  ["COc1cc(N2CCN(S(C)(=O)=O)CC2)c(-c2cnn(C)c2)cc1Nc1ncc(Br)c(Nc2ccc3nccnc3c2P(C)(C)=O)n1 [compound 110]", "pM", 570],
  ["COc1cc(N2CCC3(CCN(CCF)CC3)CC2)c(-c2cnn(C)c2)cc1Nc1ncc(Br)c(Nc2ccc3nccnc3c2P(C)(C)=O)n1 [compound 133]", "pM", 150],
  ["COc1cc(N2CCC(N3CCC(F)CC3)CC2)c(-c2cnn(C)c2)cc1Nc1ncc(Br)c(Nc2ccc3nccnc3c2P(C)(C)=O)n1 [compound 180]", "pM", 360],
  ["COc1ccc(-c2cnn(C)c2)cc1Nc1ncc(Br)c(Nc2ccc3nccnc3c2P(C)(C)=O)n1 [compound 5]", "pM", 30]
]}

Give measured IC50 for every item shown.
1. COc1cc(N2CCC(N3CCOCC3)CC2)c(-c2cnsc2)cc1Nc1ncc(Br)c(Nc2ccc3nccnc3c2P(C)(C)=O)n1 [compound 212]
2. COc1cc(N2CCC(N3CCN(C)CC3)CC2)c(-c2cnn(C)c2)cc1Nc1ncc(Br)c(Nc2cc3c(cc2N(C)S(C)(=O)=O)CC3)n1 [compound 158]
3. COc1cc(N2C[C@@H](C)O[C@@H](C)C2)c(-c2cnn(C)c2)cc1Nc1ncc(Br)c(Nc2ccc3nccnc3c2P(C)(C)=O)n1 [compound 111]

1: 330; 2: 810; 3: 1380

For each listed entry, give its IC50.
1. COc1cc(N2CCC3(CCOCC3)CC2)c(-c2cnn(C)c2)cc1Nc1ncc(Br)c(Nc2ccc3nccnc3c2P(C)(C)=O)n1 [compound 215]
2. COc1cc(N2CCC(N3CCO[C@@H](C)C3)CC2)c(-c2cnn(C)c2)cc1Nc1ncc(Br)c(Nc2ccc3nccnc3c2P(C)(C)=O)n1 [compound 165]
3. COc1cc(N2CCC3(CC2)CN(C)CCO3)c(-c2cnn(C)c2)cc1Nc1ncc(Br)c(Nc2cc3c(cc2N(C)S(C)(=O)=O)CC3)n1 [compound 195]
4. COc1cc(N2CCC(N3CC(F)C3)C2)c(-c2cnn(C)c2)cc1Nc1ncc(Br)c(Nc2ccc3nccnc3c2P(C)(C)=O)n1 (racemic) [compound 223]
5. COc1cc(N2CCN(CCF)CC2)c(-c2cnn(C)c2)cc1Nc1ncc(Br)c(Nc2ccc3nccnc3c2P(C)(C)=O)n1 [compound 103]

1: 250; 2: 690; 3: 2330; 4: 170; 5: 130

Measured IC50, COc1cc(N2CCC3(CC2)CCN(C2COC2)CC3)c(-c2cnn(C)c2)cc1Nc1ncc(Br)c(Nc2ccc3nccnc3c2P(C)(C)=O)n1 [compound 248] : 290

* * *

- targetDesc: Ba/F3 De119/T790M/C797S EGFR triple mutant cell line (Homo sapiens, UniProt P00533, T790M/C797S, cells depend on it, form not given)
- Sequence (P00533 with tags, fused parts or gaps DEL746-750/T790M/C797S, form open): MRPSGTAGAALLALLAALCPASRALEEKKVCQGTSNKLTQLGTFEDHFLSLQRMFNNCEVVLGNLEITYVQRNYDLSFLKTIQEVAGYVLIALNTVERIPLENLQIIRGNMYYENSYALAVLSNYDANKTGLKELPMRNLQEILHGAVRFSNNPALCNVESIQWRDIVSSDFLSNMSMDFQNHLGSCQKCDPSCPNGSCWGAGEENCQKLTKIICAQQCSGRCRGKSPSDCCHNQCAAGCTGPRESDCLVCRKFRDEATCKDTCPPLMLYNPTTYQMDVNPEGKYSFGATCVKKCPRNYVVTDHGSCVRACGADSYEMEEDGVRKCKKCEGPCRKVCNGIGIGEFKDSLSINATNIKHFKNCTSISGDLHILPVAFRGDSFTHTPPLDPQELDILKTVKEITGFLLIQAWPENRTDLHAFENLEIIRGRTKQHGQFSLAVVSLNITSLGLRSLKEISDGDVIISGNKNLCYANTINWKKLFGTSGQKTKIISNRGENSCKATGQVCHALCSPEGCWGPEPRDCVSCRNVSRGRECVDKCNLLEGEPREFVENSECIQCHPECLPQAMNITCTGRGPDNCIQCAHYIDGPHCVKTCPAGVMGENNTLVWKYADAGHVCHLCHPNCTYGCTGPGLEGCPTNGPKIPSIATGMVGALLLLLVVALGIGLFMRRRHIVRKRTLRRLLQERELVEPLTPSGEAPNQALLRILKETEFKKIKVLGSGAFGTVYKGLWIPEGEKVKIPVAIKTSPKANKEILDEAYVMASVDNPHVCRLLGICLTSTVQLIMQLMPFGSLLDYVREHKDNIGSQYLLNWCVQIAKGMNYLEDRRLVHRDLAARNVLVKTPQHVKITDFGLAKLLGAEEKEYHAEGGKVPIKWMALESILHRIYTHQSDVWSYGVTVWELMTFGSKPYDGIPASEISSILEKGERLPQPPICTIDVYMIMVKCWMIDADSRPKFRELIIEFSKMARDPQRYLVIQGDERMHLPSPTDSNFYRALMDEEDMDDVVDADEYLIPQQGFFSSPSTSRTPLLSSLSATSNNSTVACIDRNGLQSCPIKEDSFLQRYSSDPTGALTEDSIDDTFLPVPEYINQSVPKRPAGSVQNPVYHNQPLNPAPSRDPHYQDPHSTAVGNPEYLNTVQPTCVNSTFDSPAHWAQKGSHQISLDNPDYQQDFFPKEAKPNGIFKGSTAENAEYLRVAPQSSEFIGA
- procedureDetails: Cell proliferation inhibition experiment (CellTiter-Glo), Ba/F3 De119/T790M/C797S
- Type: cell-based
- appliedConditions: Ba/F3 Del19/T790M/C797S EGFR triple mutant cells, 72 hours, Cell Titer-Glo; read-out: Ba/F3 (Del19/T790M/C797S) IC50
Give measured log10 GI50 for each item. Keep answers brief.
Heads up, the numbers here are log10 of GI50 in nM units.

Example entries begin here.
{"columns": ["compound", "measured"],
 "data": [
  ["COc1cc(N2CCOCC2)c(-c2cnn(C)c2)cc1Nc1ncc(Br)c(Nc2ccc3ncccc3c2P(C)(C)=O)n1", 0.19],
  ["CN1CCN(c2ncc(Nc3ncc(Br)c(Nc4ccc5nccnc5c4P(C)(C)=O)n3)cc2-c2cnn(C)c2)CC1", 2.07],
  ["COc1cc(N2CCN(C(C)C)CC2)c(-c2cnn(C)c2)cc1Nc1ncc(Br)c(Nc2ccc3nccnc3c2P(C)(C)=O)n1", 0.34]
]}

Lab note: each compound below needs its log10 GI50 filled in.
1. COc1ccc(-c2cnoc2)cc1Nc1ncc(Br)c(Nc2ccc3nccnc3c2P(C)(C)=O)n1
2. COc1cc(N2CCC3(CCN(CC4(C#N)CC4)CC3)CC2)c(-c2cnn(C)c2)cc1Nc1ncc(Br)c(Nc2ccc3nccnc3c2P(C)(C)=O)n1
3. COc1cc(N2CCC3(CCN(C)CC3)CC2)c(-c2cnn(C)c2)cc1Nc1ncc(Br)c(Nc2cc3c(cc2N(C)S(C)(=O)=O)CC3)n1
4. COc1cc(N2CCN(C)C(CF)C2)c(-c2cnn(C)c2)cc1Nc1ncc(Br)c(Nc2ccc3nccnc3c2P(C)(C)=O)n1 (stereo not shown)
5. COc1cc(N2CCC(OCC3CC3)CC2)c(-c2cnn(C)c2)cc1Nc1ncc(Br)c(Nc2ccc3ncccc3c2P(C)(C)=O)n1
6. COc1cc(N2CCC(N3CCN(C)CC3)CC2)ccc1Nc1ncc(Cl)c(Nc2ccccc2P(C)(C)=O)n1 [Brigatinib, reference compound]
7. COc1nc(N2CCN(C)CC2)c(-c2cnn(C)c2)cc1Nc1ncc(Br)c(Nc2ccc3nccnc3c2P(C)(C)=O)n1
8. CN(C)CCN1CCOc2c(Nc3ncc(Br)c(Nc4ccc5nccnc5c4P(C)(C)=O)n3)cc(-c3cnn(C)c3)cc21

[1.74, 0.08, 1.09, 0.01, 0.55, 2.01, 0.82, 0.32]

Give one value of log10 GI50 per listed compound.
1. COc1cc(N2CCC(O)CC2)c(-c2cnn(C)c2)cc1Nc1ncc(Br)c(Nc2ccc3nccnc3c2P(C)(C)=O)n1
2. COc1c(Nc2ncc(Br)c(Nc3ccc4nccnc4c3P(C)(C)=O)n2)cc(-c2cnn(C)c2)c(N2CCC(N(C)C)CC2)c1F

1: 0.21; 2: 1.20
